test system: S. cerevisiae s288c autofluorescence, flow cytometry MCF, 3 h; assay: compound autofluorescence in parental yeast s288c, SAR follow-up, artefact control for yeast TOR pathway GFP screen, cherry pick 3, multiplex, flow cytometry (AID 488818); details: at 33.3 µM; hits give high values
Calls of active or inactive are those of the source.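 How the source made its calls: active means fluorescence change from solvent-only control to top dose above 25; inactive means the rest.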
// values below are reported fluorescence change

Consider the following illustrative entries.
[[record]]
mol_smiles = "CCCOCc1ccc(O)c2ncccc12"
observed_measurement = "0.25 (inactive)"

[[record]]
mol_smiles = "Cc1nc2c(O)cccc2cc1CO"
observed_measurement = "0.06 (inactive)"

[[record]]
mol_smiles = "COCCCNc1nc(N)c([N+](=O)[O-])c(Nc2ccccc2OC)n1"
observed_measurement = "0.06 (inactive)"

[[record]]
mol_smiles = "Cc1ccc2c(C)ccc(O)c2n1"
observed_measurement = "0 (inactive)"

[[record]]
mol_smiles = "COc1ccccc1Nc1nc(NCCO)nc(N)c1[N+](=O)[O-]"
observed_measurement = "0.19 (inactive)"

[[record]]
mol_smiles = "Nc1ncnc(Nc2cc(Cl)cc(Cl)c2)c1[N+](=O)[O-]"
observed_measurement = "0.12 (inactive)"


GET /values?readout=fluorescence change&item= Oc1c(Br)cc(Br)c2cccnc12
3.5 (inactive)

GET /values?readout=fluorescence change&item= Cc1nc(Nc2ccc(Br)cc2Br)c([N+](=O)[O-])c(=O)[nH]1
0 (inactive)

GET /values?readout=fluorescence change&item= Oc1c(I)cc(Cl)c2cccnc12
2.85 (inactive)

GET /values?readout=fluorescence change&item= COCCNc1nc(N)c([N+](=O)[O-])c(Nc2ccc(F)cc2)n1
0.18 (inactive)

GET /values?readout=fluorescence change&item= Cn1cccc1C(=O)Nc1nc(-c2ccccn2)cs1
0.3 (inactive)

GET /values?readout=fluorescence change&item= COc1ccc(OC)c(Nc2nc(NCCC(C)C)nc(N)c2[N+](=O)[O-])c1
0.12 (inactive)

###

tested on: S. cerevisiae s288c autofluorescence, flow cytometry MCF, 3 h; experiment: compound autofluorescence in parental yeast s288c, SAR follow-up, artefact control for yeast TOR pathway GFP screen, cherry pick 3, multiplex, flow cytometry (AID 488818); conditions: at 33.3 µM; hits give high values
Where fluorescence change equals or exceeds 0.1, the correct label is yes (1); where it does not, the label is no (0).

Known results for compounds:
[[record]]
compound = "CCOC(=O)CS(=O)(=O)c1nc(-c2ccccc2)cc(C(F)(F)F)n1"
discrete_label = "yes (1)"

[[record]]
compound = "NC(=O)c1ccnc2c(O)cccc12"
discrete_label = "no (0)"

[[record]]
compound = "COCC(C)NC(=O)CCS(=O)(=O)c1nc(-c2ccc(OC)cc2)cc(C(F)(F)F)n1 (configuration not stated)"
discrete_label = "yes (1)"


Would you kindly look at the next entry?
Decide: is the reported value of fluorescence change for COc1ccccc1Nc1nc(NCCC(C)C)nc(N)c1[N+](=O)[O-] equal to or greater than 0.1?
no (0)

###

// values below are reported fluorescence change
test system: S. cerevisiae s288c autofluorescence, flow cytometry MCF, 3 h; assay: compound autofluorescence in parental yeast s288c, SAR follow-up, artefact control for yeast TOR pathway GFP screen, cherry pick 3, multiplex, flow cytometry (AID 488818); conditions: at 33.3 µM; hits give high values
Provide a numeric answer; units are not to be included.

Consider the following illustrative entries.
[[record]]
compound = "CNc1nc(N)c([N+](=O)[O-])c(Nc2ccccc2OC)n1"
observed_measurement = 0.08

[[record]]
compound = "Cc1ccc(C(=O)Nc2nc(-c3ccccn3)cs2)o1"
observed_measurement = 0.24

[[record]]
compound = "COc1ccc(OC)c2c(=O)cc(C(=O)O)[nH]c12"
observed_measurement = 0.06

[[record]]
compound = "COc1ccc(Nc2nc(NN)nc(C)c2[N+](=O)[O-])cc1"
observed_measurement = 0.06

[[record]]
compound = "CC(=O)NC(C)c1cc(Cl)c2cccnc2c1O (stereo not drawn)"
observed_measurement = 0.25


GET /values?readout=fluorescence change&item= Oc1c(Cl)cc(Cl)c2cccnc12
2.85

GET /values?readout=fluorescence change&item= Oc1ccc(F)c2cccnc12
0.06

GET /values?readout=fluorescence change&item= Nc1nc(NCCOCCO)nc(Nc2cccc(F)c2)c1[N+](=O)[O-]
0.12
